The following compounds are listed with their measured pKd values.
SYSTEM UNDER TEST: Galectin-1 (Homo sapiens (Human), UniProt P09382)
TEST NAME: Fluorescence anisotropy assay, compound as inhibitor of galectin / fluorescein tagged saccharide probe interaction
Format: binding
Please report pKd as the negative decimal logarithm of the molar concentration, giving only the number.

> print(dat)
                                   compound                         system.under.test  result.value
1  OC[C@H]1O[C@H](Sc2ccc(Cl)c(Cl)c2)[C@H](O)[C@@H](n2cc(-c3ccc(F)s3)nn2)[C@H]1O  Galectin-1 (Homo sapiens (Human), UniProt P09382)          6.26
2  N#Cc1cc(F)c(S[C@H]2OC(CO)[C@H](O)[C@H](n3cc(-c4ccsc4)nn3)C2O)cc1Cl (stereo partly shown)  Galectin-1 (Homo sapiens (Human), UniProt P09382)          6.72
3  OC[C@H]1O[C@H](Sc2ccc(Cl)c(Cl)c2)[C@H](O)[C@@H](n2cc(-c3ncc(F)s3)nn2)[C@H]1O  Galectin-1 (Homo sapiens (Human), UniProt P09382)          6.40
4  OC[C@H]1O[C@H](Sc2cncc(Cl)c2)[C@H](O)[C@@H](n2cc(-c3nccs3)nn2)[C@H]1O  Galectin-1 (Homo sapiens (Human), UniProt P09382)          6.66
5  OC[C@H]1O[C@H](Sc2cncc(Br)c2)[C@H](O)[C@@H](n2cc(-c3cccs3)nn2)[C@H]1O  Galectin-1 (Homo sapiens (Human), UniProt P09382)          6.35
6  OC[C@H]1O[C@H](Sc2cncc(Br)c2)[C@H](O)[C@@H](n2cc(-c3ccsc3)nn2)[C@H]1O  Galectin-1 (Homo sapiens (Human), UniProt P09382)          6.17
7  OC[C@H]1O[C@H](Sc2ccc(Cl)c(Br)c2)[C@H](O)[C@@H](n2cc(-c3nccs3)nn2)[C@H]1O  Galectin-1 (Homo sapiens (Human), UniProt P09382)          6.36
8  OC[C@H]1O[C@H](Sc2cc(Cl)c(F)c(Cl)c2)[C@H](O)[C@@H](n2cc(-c3cccs3)nn2)[C@H]1O  Galectin-1 (Homo sapiens (Human), UniProt P09382)          6.04

Answer with the recorded pKd of N#Cc1ncc(Br)cc1S[C@H]1O[C@H](CO)[C@H](O)[C@H](n2cc(-c3nccs3)nn2)[C@H]1O only.
6.70

For the compound Cc1nc(-c2cn([C@@H]3[C@@H](O)[C@@H](Sc4cncc(Br)c4)O[C@H](CO)[C@@H]3O)nn2)cs1 , give its measured pKd value.
6.19

// fetch pKd given entry OC[C@H]1O[C@H](Sc2cnc(C(F)(F)F)c(Br)c2)[C@H](O)[C@@H](n2cc(-c3cscn3)nn2)[C@H]1O
6.77

Give the value of pKd reported for the following: N#Cc1ncc(S[C@H]2O[C@H](CO)[C@H](O)[C@H](n3cc(-c4nccs4)nn3)[C@H]2O)cc1Cl
6.36

For the compound OC[C@H]1O[C@H](Sc2ccc(Cl)c(Cl)c2)[C@H](O)[C@@H](n2cc(-c3cscn3)nn2)[C@H]1O , give its measured pKd value.
6.51

Input OCC1O[C@H](Sc2cncc(Br)c2)C(O)[C@@H](n2cc(-c3nccs3)nn2)[C@H]1O (stereo partly shown) , output reported pKd.
6.26

Output measured pKd for this item: OC[C@H]1O[C@H](Sc2cc(Cl)c(F)c(Cl)c2)[C@H](O)[C@@H](n2cc(-c3cscn3)nn2)[C@H]1O
6.64

Please supply the value of reported pKd for the item OC[C@H]1O[C@H](Sc2ccc(Cl)c(Cl)c2)[C@H](O)[C@@H](n2cc(-c3ccc(F)cn3)nn2)[C@H]1O
6.62

Give pKd for the following compound: OC[C@H]1O[C@H](Sc2ccc(Cl)c(Cl)c2)[C@H](O)[C@@H](n2cc(-c3ccsc3)nn2)[C@H]1O
6.85
